- METHOD: Differential scanning calorimetry (DSC): heat of fusion, thermal events
- Format: physicochemical
MEASURED_QUANTITY: DSC Thermal Events, Exo: crystallization of pattern F

Request the reported DSC Thermal Events, Exo: crystallization of pattern F associated with CC[C@H](C)C(=O)N1CCC(NC(=O)Nc2ccc(OC(F)(F)F)c(F)c2)CC1 [L]
143 °C crystallization of patter F

Request the reported DSC Thermal Events, Exo: crystallization of pattern F associated with CC[C@H](C)C(=O)N1CCC(NC(=O)Nc2ccc(OC(F)(F)F)c(F)c2)CC1 [E]
144 °C crystallization of pattern F

Request the reported DSC Thermal Events, Exo: crystallization of pattern F associated with CC[C@H](C)C(=O)N1CCC(NC(=O)Nc2ccc(OC(F)(F)F)c(F)c2)CC1 [H]
142 °C crystallization of patter F

Request the reported DSC Thermal Events, Exo: crystallization of pattern F associated with CC[C@H](C)C(=O)N1CCC(NC(=O)Nc2ccc(OC(F)(F)F)c(F)c2)CC1 [Form A]
117 °C crystallization of pattern

Request the reported DSC Thermal Events, Exo: crystallization of pattern F associated with CC[C@H](C)C(=O)N1CCC(NC(=O)Nc2ccc(OC(F)(F)F)c(F)c2)CC1 [C]
114 °C crystallization of pattern F
